tgt: UniProt P38532
Sequence (P38532 whole entry): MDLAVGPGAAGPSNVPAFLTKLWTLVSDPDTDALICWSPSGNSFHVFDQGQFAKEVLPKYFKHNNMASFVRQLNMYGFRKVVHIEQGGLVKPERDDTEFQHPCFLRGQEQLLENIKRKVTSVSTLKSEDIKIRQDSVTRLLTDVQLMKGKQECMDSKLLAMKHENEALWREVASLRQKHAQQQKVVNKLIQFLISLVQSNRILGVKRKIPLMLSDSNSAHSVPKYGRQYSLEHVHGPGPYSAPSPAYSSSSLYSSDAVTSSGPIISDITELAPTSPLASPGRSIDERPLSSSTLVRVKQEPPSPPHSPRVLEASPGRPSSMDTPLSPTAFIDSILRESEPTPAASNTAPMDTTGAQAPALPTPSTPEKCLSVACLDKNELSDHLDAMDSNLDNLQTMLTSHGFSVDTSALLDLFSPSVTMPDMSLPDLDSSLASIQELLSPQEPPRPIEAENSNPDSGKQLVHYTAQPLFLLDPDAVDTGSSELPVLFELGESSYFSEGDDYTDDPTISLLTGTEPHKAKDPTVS
test: HSF1 potentiators in luciferase reporter cells, confirmation, cell-based, NIH3T3, luminescence, dose retest (AID 435004);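 also: stress induced by proteasome inhibitor MG132 added 30 min after compound; luciferase reporter driven by HSF1 response element in NIH3T3 cells; actives raise luminescence as potentiators of the MG132 stress response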
Format: functional
The source made the active and inactive calls. Rule as the data show it: actives have a measured EC50 and inactives only a lower limit.
Labels: active, inactive

| compound | tgt | assigned-class |
| --- | --- | --- |
| CC(C)CCNC1c2ccccc2C(=O)N1Cc1ccccc1 (stereo unspecified) | UniProt P38532 | inactive |
| CSC(=N/c1cc(Cl)ccc1Cl)/C(C#N)=C(/O)c1ccco1 | UniProt P38532 | active |
| Cc1ccc2oc(C(Cl)(Cl)Cl)cc(=O)c2c1 | UniProt P38532 | active |
| COc1ccc2c(c1)CCc1c(C(=O)N3CC4(C)CC3CC(C)(C)C4)noc1-2 (stereo unspecified) | UniProt P38532 | inactive |
| O=C(c1cn(CC(=O)N2CCCCC2)c2ccccc12)C1CC1 | UniProt P38532 | inactive |
| Cc1cc(C(=O)N2CCN(c3ccccn3)CC2)c(C)o1 | UniProt P38532 | inactive |
| CC(=N)/C(C#N)=C(/O)CSc1nnc(-c2ccccc2Br)o1 | UniProt P38532 | inactive |
| O=C(CC1C(=O)N(Cc2ccccc2)C(=S)N1CCN1CCOCC1)Nc1ccc(F)cc1 (stereo unspecified) | UniProt P38532 | inactive |
| CCOc1ccc(C(=O)NC2CC3CCCC(C2)N3CC(C)C)cc1 (stereo unspecified) | UniProt P38532 | inactive |
| COc1cc2nc(NC(=O)c3ccc(Cl)cc3)sc(=O)c2cc1OC | UniProt P38532 | inactive |
| O=C(NC(CO)(CO)CO)c1coc(=O)c(Br)c1 | UniProt P38532 | inactive |
